# TARGET_SYSTEM: human CaMKIIδ (Homo sapiens, UniProt Q13557)
# Construct: Full-length, glutathione-S-transferase(GST)-tagged, human CaMKIIδ was purchased from Carna Biosciences; purchased Carna Biosciences (CaMKIIδ); Wako Pure Chemical Industries (calmodulin) 02-111
# PROTOCOL_TEXT: Evaluation of in vitro CaMKII inhibitory activity (binding assay, TR-FRET)
# RUN_CONDITIONS: human CaMKIIδ, TR-FRET binding assay; class symbols A/B/C; read-out: Act (CaMKII inhibitory activity, binding assay)
pIC50: −log10 of the molar value.
TEST_READOUT: pIC50

For orientation, consider the following solved cases.
{"columns": ["SMILES_STR", "pIC50"],
 "data": [
  ["C[C@@H](Cn1cnnn1)Oc1cc(-c2ccn3ncc(-c4cccc(OCC#N)c4)c3n2)ccc1F", "> 8.00"],
  ["C[C@@H](Cn1cnnn1)Oc1cccc(-c2ccn3ncc(-c4cccc(C(=O)Nc5cccnc5)c4)c3n2)c1", "> 8.00"],
  ["C[C@@H](Cn1cnnn1)Oc1cc(-c2ccc3ncn(-c4cccc(C#N)n4)c3n2)ccc1F", "> 8.00"],
  ["C[C@@H](Cn1cnnn1)Oc1cccc(-c2ccn3ncc(-c4cccc(C(=O)NCCCN5CC(O)C5)c4)c3n2)c1", "> 8.00"]
]}

// batch mode: one pIC50 value per listed entry
1. C[C@@H](Cn1cnnn1)Oc1cc(-c2ccc3ncc(-c4cccc(OCC(F)F)c4C#N)n3n2)ccc1F
2. C[C@@H](Cn1cnnn1)Oc1cc(-c2ccn3ncc(-c4ccc(N5CCNCC5)cc4)c3n2)ccc1F
3. C[C@@H](Cn1cnnn1)Oc1cc(-c2ccn3ncc(-c4ccccc4)c3n2)ccc1F
4. CCN(CC)CCNC(=O)c1cccc(-c2cnn3ccc(-c4cccc(O[C@@H](C)Cn5cnnn5)c4)nc23)c1
5. C[C@@H](Cn1cnnn1)Oc1cc(-c2ccn3ncc(-c4cnn(C(F)F)c4)c3n2)ccc1F

Response:
> 8.00
> 8.00
> 8.00
> 8.00
> 8.00

// each listed compound needs a value for pIC50
1. COCCCn1ncc(-c2cnc3ccc(-c4ccc(F)c(O[C@@H](C)Cn5cnnn5)c4)nn23)c1C(=O)O
2. CCN(CC)CCNC(=O)c1cccc(-n2cnc3ccc(-c4ccc(C#N)c(O[C@@H](C)Cn5cnnn5)c4)nc32)c1

Response:
< 7.00
< 7.00

Each compound below has a reported value. Please supply its pIC50.
1. C[C@@H](Cn1cnnn1)Oc1cc(-c2ccn3ncc(-c4ccn(CCN5CCOCC5)n4)c3n2)ccc1F
2. C[C@@H](Cn1cnnn1)Oc1cc(-c2ccn3ncc(-c4cncs4)c3n2)ccc1F
3. Cc1c(-c2cnn3ccc(-c4ccc(F)c(O[C@@H](C)Cn5cnnn5)c4)nc23)cnn1C
4. C[C@@H](Cn1cnnn1)Oc1cc(-c2ccc3ncc(-c4cn(CCCO)nc4C#N)n3n2)ccc1F
5. C[C@@H](Cn1cnnn1)Oc1cccc(-c2ccn3ncc(-c4cccc(C(=O)N5CCn6ccnc6C5)c4)c3n2)c1
6. CNC(=O)c1cccc(-c2cnn3ccc(-c4ccc(F)c(O[C@@H](C)Cn5cnnn5)c4)nc23)c1
7. C[C@@H](Cn1cnnn1)Oc1cc(-c2ccn3ncc(-c4cccc(N5CCOCC5)c4)c3n2)ccc1F

Response:
1: > 8.00; 2: > 8.00; 3: > 8.00; 4: 7.00 to 8.00; 5: 7.00 to 8.00; 6: > 8.00; 7: 7.00 to 8.00

For each of the compounds below, state pIC50.
1. CC(C)CCNC(=O)c1cccc(-c2cnn3ccc(-c4cccc(O[C@@H](C)Cn5cnnn5)c4)nc23)c1
2. C[C@@H](Cn1cnnn1)Oc1cccc(-c2ccn3ncc(-c4cccc(C(=O)NCCN5CCS(=O)(=O)CC5)c4)c3n2)c1

Response:
> 8.00
> 8.00
